target.desc: Proteasome subunit beta type-8 (Homo sapiens, UniProt P28062)
Sequence (P28062 whole entry): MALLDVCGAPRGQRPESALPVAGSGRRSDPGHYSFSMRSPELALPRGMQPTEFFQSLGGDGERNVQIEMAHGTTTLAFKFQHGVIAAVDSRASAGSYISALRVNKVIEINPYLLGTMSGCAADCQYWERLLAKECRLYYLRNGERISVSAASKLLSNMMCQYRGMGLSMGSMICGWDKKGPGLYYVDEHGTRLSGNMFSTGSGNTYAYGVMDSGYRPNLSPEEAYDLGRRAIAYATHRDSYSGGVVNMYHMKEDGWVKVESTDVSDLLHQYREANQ
procedure.summary: Inhibition of proteasome subunit beta-5i in human RPMI8226 cells using BODIPY-NC005 by fluorescent densitometry
Format: cell-based, RPMI-8226
Kindly state log10 of IC50 for each of the entries shown.
Hey, these are logged values: log10 of IC50, nM being the unit before logging.

Missing value: log10 of IC50, Proteasome subunit beta type-8 (Homo sapiens, UniProt P28062), entry COc1ccc(C[C@H](NC(=O)[C@@H](C)NC(=O)CN2CCOCC2)C(=O)N[C@@H](CC2CCCCC2)C(=O)[C@@]2(C)CO2)cc1 . Fill in?
2.00

Missing value: log10 of IC50, Proteasome subunit beta type-8 (Homo sapiens, UniProt P28062), entry CC1=C(C(=O)N[C@H](C)C(=O)N[C@@H](Cc2c[nH]c3ccccc23)C(=O)N[C@@H](Cc2ccccc2)C(=O)[C@@]2(C)CO2)Cc2ccccc21 . Fill in?
1.40

Missing value: log10 of IC50, Proteasome subunit beta type-8 (Homo sapiens, UniProt P28062), entry COc1ccc(C[C@H](NC(=O)[C@@H](C)NC(=O)C2=C(C)c3ccccc3C2)C(=O)N[C@@H](CC2CCCCC2)C(=O)[C@@]2(C)CO2)cc1 . Fill in?
2.57

Missing value: log10 of IC50, Proteasome subunit beta type-8 (Homo sapiens, UniProt P28062), entry CC1=C(C(=O)N[C@H](C)C(=O)N[C@@H](Cc2c[nH]c3ccccc23)C(=O)N[C@@H](CC2CCCCC2)C(=O)[C@@]2(C)CO2)Cc2ccccc21 . Fill in?
2.36

Missing value: log10 of IC50, Proteasome subunit beta type-8 (Homo sapiens, UniProt P28062), entry CC1=C(C(=O)N[C@H](C)C(=O)N[C@@H](Cc2c[nH]c3ccccc23)C(=O)N[C@H](/C=C/S(C)(=O)=O)Cc2ccccc2)Cc2ccccc21 . Fill in?
2.59

Missing value: log10 of IC50, Proteasome subunit beta type-8 (Homo sapiens, UniProt P28062), entry C[C@@H](NC(=O)CN1CCOCC1)C(=O)N[C@@H](Cc1c[nH]c2ccccc12)C(=O)N[C@@H](CC1CCCCC1)C(=O)[C@@]1(C)CO1 . Fill in?
1.77

Missing value: log10 of IC50, Proteasome subunit beta type-8 (Homo sapiens, UniProt P28062), entry COc1ccc(C[C@H](NC(=O)[C@H](C)NC(=O)CN2CCOCC2)C(=O)N[C@@H](CC2CCCCC2)C(=O)[C@@]2(C)CO2)cc1 . Fill in?
1.64

###

target.desc: Proteasome subunit beta type-8 (Homo sapiens, UniProt P28062)
procedure.summary: Inhibition of proteasome subunit beta-5i in human Raji cells using BODIPY-NC005 by fluorescent densitometry
Format: cell-based
Kindly state IC50 for each of the entries shown.
Output spec: scalar in nM, unitless text.

Value lookup for IC50; key = CC1=C(C(=O)N[C@H](C)C(=O)N[C@@H](Cc2c[nH]c3ccccc23)C(=O)N[C@H](/C=C/S(C)(=O)=O)Cc2ccccc2)Cc2ccccc21
53

Value lookup for IC50; key = COc1ccc(C[C@H](NC(=O)[C@@H](C)NC(=O)CN2CCOCC2)C(=O)N[C@@H](CC2CCCCC2)C(=O)[C@@]2(C)CO2)cc1
36

Value lookup for IC50; key = C[C@@H](NC(=O)CN1CCOCC1)C(=O)N[C@@H](Cc1c[nH]c2ccccc12)C(=O)N[C@@H](Cc1ccc(-c2ccccc2)cc1)C(=O)[C@@]1(C)CO1
2.1

Value lookup for IC50; key = COc1ccc(C[C@H](NC(=O)[C@H](C)NC(=O)CN2CCOCC2)C(=O)N[C@@H](Cc2ccc3ccccc3c2)C(=O)[C@@]2(C)CO2)cc1
3.1

Value lookup for IC50; key = C[C@@H](NC(=O)CN1CCOCC1)C(=O)N[C@@H](Cc1c[nH]c2ccccc12)C(=O)N[C@@H](Cc1ccccc1)C(=O)[C@@]1(C)CO1
13

Value lookup for IC50; key = CC1=C(C(=O)N[C@H](C)C(=O)N[C@@H](Cc2c[nH]c3ccccc23)C(=O)N[C@@H](Cc2ccccc2)C(=O)[C@@]2(C)CO2)Cc2ccccc21
2.5

###

target.desc: Proteasome subunit beta type-10 (Homo sapiens, UniProt P40306)
Sequence (P40306 whole entry): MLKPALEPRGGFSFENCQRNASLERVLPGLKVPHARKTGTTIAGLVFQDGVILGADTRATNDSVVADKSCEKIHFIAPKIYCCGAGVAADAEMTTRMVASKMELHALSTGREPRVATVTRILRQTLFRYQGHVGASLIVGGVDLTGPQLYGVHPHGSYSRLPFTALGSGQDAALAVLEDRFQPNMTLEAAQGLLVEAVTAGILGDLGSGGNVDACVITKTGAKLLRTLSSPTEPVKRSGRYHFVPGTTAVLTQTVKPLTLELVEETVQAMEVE
procedure.summary: Inhibition of proteasome subunit beta-2i in human Raji cells using BODIPY- epoxomicin by fluorescent densitometry
Type: cell-based
pIC50: −log10 of the molar value.
Kindly state pIC50 for each of the entries shown.

Value lookup for pIC50; key = CCCCCCC(=O)N[C@@H](C)C(=O)N[C@@H](CC(C)C)C(=O)[C@@]1(CO[Si](C)(C)C(C)(C)C)CO1
4.60

Value lookup for pIC50; key = CC1=C(C(=O)N[C@H](C)C(=O)N[C@@H](Cc2c[nH]c3ccccc23)C(=O)N[C@@H](CC2CCCCC2)C(=O)[C@@]2(C)CO2)Cc2ccccc21
< 5.00

Value lookup for pIC50; key = CCCC[C@H](NC(=O)[C@@H]1CC(F)(F)CN1C(=O)[C@H](C)NC(=O)CN=[N+]=[N-])C(=O)N[C@@H](Cc1ccccc1)C(=O)[C@@]1(C)CO1
< 4.00

Value lookup for pIC50; key = COc1ccc(C[C@H](NC(=O)[C@@H](C)NC(=O)C2=C(C)c3ccccc3C2)C(=O)N[C@@H](CC2CCCCC2)C(=O)[C@@]2(C)CO2)cc1
< 5.00

Value lookup for pIC50; key = CCCC[C@H](NC(=O)[C@@H]1CCCN1C(=O)[C@H](C)NC(=O)CN=[N+]=[N-])C(=O)N[C@@H](CC1CCCCC1)C(=O)[C@@]1(C)CO1
< 4.52

Value lookup for pIC50; key = CCCC[C@H](NC(=O)[C@@H]1CC(F)(F)CN1C(=O)[C@H](C)NC(=O)CN=[N+]=[N-])C(=O)N[C@@H](CC1CCCCC1)C(=O)[C@@]1(C)CO1
< 4.00

Value lookup for pIC50; key = CC1=C(C(=O)N[C@H](C)C(=O)N[C@@H](Cc2c[nH]c3ccccc23)C(=O)N[C@H](/C=C/S(C)(=O)=O)Cc2ccccc2)Cc2ccccc21
< 4.00

Value lookup for pIC50; key = CCCC[C@H](NC(=O)[C@@H]1CCCN1C(=O)[C@H](C)NC(=O)CN=[N+]=[N-])C(=O)N[C@@H](Cc1ccccc1)C(=O)[C@@]1(C)CO1
< 4.00

Value lookup for pIC50; key = CC1=C(C(=O)N[C@H](C)C(=O)N[C@@H](Cc2c[nH]c3ccccc23)C(=O)N[C@@H](Cc2ccccc2)C(=O)[C@@]2(C)CO2)Cc2ccccc21
< 5.00

Value lookup for pIC50; key = C[C@@H](NC(=O)CN1CCOCC1)C(=O)N[C@@H](Cc1c[nH]c2ccccc12)C(=O)N[C@@H](CC1CCCCC1)C(=O)[C@@]1(C)CO1
< 5.00

###

target.desc: Proteasome subunit beta type-9 (Homo sapiens, UniProt P28065)
procedure.summary: Inhibition of proteasome subunit beta-1i in human Raji cells using BODIPY- epoxomicin by fluorescent densitometry
Format: cell-based
assay.readout: IC50

Missing value: IC50, Proteasome subunit beta type-9 (Homo sapiens, UniProt P28065), entry CC1=C(C(=O)N[C@H](C)C(=O)N[C@@H](Cc2c[nH]c3ccccc23)C(=O)N[C@@H](Cc2ccccc2)C(=O)[C@@]2(C)CO2)Cc2ccccc21 . Fill in?
1.84 µM

Missing value: IC50, Proteasome subunit beta type-9 (Homo sapiens, UniProt P28065), entry COc1ccc(C[C@H](NC(=O)[C@@H](C)NC(=O)CN2CCOCC2)C(=O)N[C@@H](CC2CCCCC2)C(=O)[C@@]2(C)CO2)cc1 . Fill in?
> 10 µM

Missing value: IC50, Proteasome subunit beta type-9 (Homo sapiens, UniProt P28065), entry CCCC[C@H](NC(=O)[C@@H]1CC(F)(F)CN1C(=O)[C@H](C)NC(=O)CN=[N+]=[N-])C(=O)N[C@@H](Cc1ccccc1)C(=O)[C@@]1(C)CO1 . Fill in?
0.042 µM

Missing value: IC50, Proteasome subunit beta type-9 (Homo sapiens, UniProt P28065), entry CCCC[C@H](NC(=O)[C@@H]1C[C@@H](F)CN1C(=O)[C@H](C)NC(=O)CN=[N+]=[N-])C(=O)N[C@@H](CC(C)C)C(=O)[C@@]1(C)CO1 . Fill in?
0.022 µM

###

target.desc: Proteasome subunit beta type-9 (Homo sapiens, UniProt P28065)
Sequence (P28065 whole entry): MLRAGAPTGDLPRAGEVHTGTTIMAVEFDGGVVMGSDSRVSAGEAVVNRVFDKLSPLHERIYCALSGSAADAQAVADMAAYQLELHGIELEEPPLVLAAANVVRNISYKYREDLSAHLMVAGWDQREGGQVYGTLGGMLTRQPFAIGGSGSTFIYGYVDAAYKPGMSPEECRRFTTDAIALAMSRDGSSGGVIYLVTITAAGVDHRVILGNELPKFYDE
procedure.summary: Inhibition of proteasome subunit beta-1i in human RPMI8226 cells using BODIPY-NC001 by fluorescent densitometry
Format: cell-based, RPMI-8226
assay.readout: pIC50
Notebook: values listed as pIC50 are -log10 of the concentration (mol/L).

Value lookup for pIC50; key = CC1=C(C(=O)N[C@H](C)C(=O)N[C@@H](Cc2c[nH]c3ccccc23)C(=O)N[C@@H](Cc2ccccc2)C(=O)[C@@]2(C)CO2)Cc2ccccc21
5.46

Value lookup for pIC50; key = COc1ccc(C[C@H](NC(=O)[C@@H](C)NC(=O)CN2CCOCC2)C(=O)N[C@@H](CC2CCCCC2)C(=O)[C@@]2(C)CO2)cc1
5.14

Value lookup for pIC50; key = C[C@@H](NC(=O)CN1CCOCC1)C(=O)N[C@@H](Cc1c[nH]c2ccccc12)C(=O)N[C@@H](CC1CCCCC1)C(=O)[C@@]1(C)CO1
5.21

Value lookup for pIC50; key = CCCC[C@H](NC(=O)[C@@H]1CCCN1C(=O)[C@H](C)NC(=O)CN=[N+]=[N-])C(=O)N[C@@H](CC(C)C)C(=O)[C@@]1(C)CO1
6.85

Value lookup for pIC50; key = CC1=C(C(=O)N[C@H](C)C(=O)N[C@@H](Cc2c[nH]c3ccccc23)C(=O)N[C@@H](CC2CCCCC2)C(=O)[C@@]2(C)CO2)Cc2ccccc21
4.80

Value lookup for pIC50; key = COc1ccc(C[C@H](NC(=O)[C@H](C)NC(=O)CN2CCOCC2)C(=O)N[C@@H](CC2CCCCC2)C(=O)[C@@]2(C)CO2)cc1
6.43
